Biological target: MT2 (Homo sapiens, UniProt P49286)
Sequence (P49286 1-362): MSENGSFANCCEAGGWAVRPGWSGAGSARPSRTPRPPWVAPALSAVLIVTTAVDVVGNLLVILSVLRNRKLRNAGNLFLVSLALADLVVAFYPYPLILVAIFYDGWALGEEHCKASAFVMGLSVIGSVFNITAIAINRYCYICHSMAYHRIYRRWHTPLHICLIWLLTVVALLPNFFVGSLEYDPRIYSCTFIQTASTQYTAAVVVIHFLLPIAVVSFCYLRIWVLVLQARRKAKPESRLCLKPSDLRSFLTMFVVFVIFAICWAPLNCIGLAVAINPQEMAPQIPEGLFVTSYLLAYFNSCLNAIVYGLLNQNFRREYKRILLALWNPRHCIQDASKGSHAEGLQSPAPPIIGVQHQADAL
Test: Intracellular Ca2+ mobilization (FLIPR) in MT2-CHO cells co-expressing 16z25
Assay type: cell-based
Parameters: expressed in transfected cells
Details: MT2-CHO cells, FLIPR; calculated from mean pEC50; NSR = no significant response for up to 30 µM; read-out: MT2 EC50, Ca2+ mobilization
measured-attribute: EC50 (nM)

Before answering, review these 3 worked examples.
compound	quantity-unit	reported-result
COc1cccc(COc2cc3ccn(C)c(=O)c3cc2OC)c1	nM	0.3
COc1cc(COc2c(OC)ccc3c(=O)n(C)ccc23)cc(OC)c1 [15c]	nM	4.08
COc1ccc2c(=O)n(C)ccc2c1OCc1ccccc1 [15a]	nM	215

I: COc1cccc(COc2cc3c(=O)n(C)ccc3cc2OC)c1 [14b]
II: COc1cc(COc2cc3c(=O)n(C)ccc3cc2OC)cc(OC)c1 [14c]
III: COc1ccc2c(=O)n(C)ccc2c1OCc1ccc(C)cc1 [15d]
IV: COc1ccccc1COc1cc2ccn(C)c(=O)c2cc1OC
Please list these in order of increasing EC50. Thank you! # the answer lists labels in the order requested
IV, I, III, II
(IV: 25.7 nM, I: 48.9 nM, III: 128 nM, II: 228 nM)

I: COc1cc2c(=O)n(C)ccc2cc1OCc1cc(C)cc(C)c1
II: COc1cc(COc2cc3ccn(C)c(=O)c3cc2OC)cc(OC)c1
III: COc1cc2c(=O)n(C)ccc2cc1OCc1ccccc1
Please rank these compounds by EC50 in descending order. A complete answer lists every label in the requested sequence.
III, I, II

---

Target: MT2 (Homo sapiens)
Sequence (P49286 1-362): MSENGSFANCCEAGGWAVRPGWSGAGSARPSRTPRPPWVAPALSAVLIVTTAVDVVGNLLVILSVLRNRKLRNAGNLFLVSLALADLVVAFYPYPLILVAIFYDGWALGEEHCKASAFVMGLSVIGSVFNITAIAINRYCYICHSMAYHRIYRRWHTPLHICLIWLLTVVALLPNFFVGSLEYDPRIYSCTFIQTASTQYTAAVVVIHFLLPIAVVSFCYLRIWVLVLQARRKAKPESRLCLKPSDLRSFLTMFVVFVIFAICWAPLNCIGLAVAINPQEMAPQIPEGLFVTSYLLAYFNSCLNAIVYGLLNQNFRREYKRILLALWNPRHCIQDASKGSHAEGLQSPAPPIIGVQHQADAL
Experiment: Intracellular Ca2+ mobilization (FLIPR) in MT2-CHO cells co-expressing 16z25
Assay type: cell-based
Set-up: expressed in transfected cells
Conditions: MT2; percentage of melatonin (MT)-mediated stimulation of Ca2+ signal; read-out: MT2 %Resp ±SEM, Ca2+ signal
measured-attribute: Emax (%)

smiles-repr	measured-attribute	quantity-unit	reported-result
COc1cc2c(=O)n(C)ccc2cc1OCc1cc(C)cc(C)c1	Emax	%	83
COc1cc2c(=O)n(C)ccc2cc1OCc1ccccc1	Emax	%	84
COc1cccc(COc2cc3ccn(C)c(=O)c3cc2OC)c1	Emax	%	92

Where these numbers come from: paper PMC4257560
